Kindly supply the reported IC50 values for the records listed here.
test system: P. falciparum 7G8 (Brazil); experiment: [3H]-hypoxanthine incorporation assay, 7G8; format: cell-based, Plasmodium falciparum; details: Plasmodium falciparum, 7G8, read-out: 50% inhibitory concentration (IC50)
All answers are understood in nM, so give the number only.

Bench note, P. falciparum 7G8 (Brazil): C[C@H]1[C@H](OC(=O)CCC(=O)O)O[C@@H]2O[C@@]3(C)CC[C@H]4[C@H](C)CC[C@@H]1[C@@]24OO3 [Artesunate, artesunate] , IC50 reads 1.8

Bench note, P. falciparum 7G8 (Brazil): CCN(CC)CCCC(C)Nc1ccnc2cc(Cl)ccc12 (centres unmarked) , IC50 reads 137
